Origin of measurements: paper PMC8877291

Target: dopamine D3 receptor (Homo sapiens, UniProt P35462)
Sequence (P35462 whole entry): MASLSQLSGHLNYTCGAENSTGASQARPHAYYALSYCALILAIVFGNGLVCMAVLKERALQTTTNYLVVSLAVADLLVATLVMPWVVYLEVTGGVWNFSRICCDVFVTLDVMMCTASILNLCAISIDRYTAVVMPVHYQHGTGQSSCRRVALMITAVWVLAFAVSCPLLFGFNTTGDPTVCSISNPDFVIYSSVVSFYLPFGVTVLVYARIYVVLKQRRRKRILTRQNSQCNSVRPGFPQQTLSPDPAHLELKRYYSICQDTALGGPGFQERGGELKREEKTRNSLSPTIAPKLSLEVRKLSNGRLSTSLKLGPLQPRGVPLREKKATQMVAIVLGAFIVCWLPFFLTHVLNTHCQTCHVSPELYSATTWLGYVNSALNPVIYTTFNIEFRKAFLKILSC
Test: Dopamine D3 receptor competition binding ([3H]spiperone)
pKi: −log10 of the molar value.
Consider the following molecules; for each one, report its pKi.

Recorded pKi, per entry:
{"columns": ["molecule", "subject.of.test", "pKi"],
 "data": [
  ["COc1ccc(-c2cc(F)ccc2N2CCN(CCCCn3ncc(=O)n(C)c3=O)CC2)cc1", "dopamine D3 receptor (Homo sapiens, UniProt P35462)", "< 5.00"],
  ["Cn1c(=O)cnn(CCCCN2CCN(c3ccc(F)cc3-c3ccc(C#N)cc3)CC2)c1=O [Compound 10b]", "dopamine D3 receptor (Homo sapiens, UniProt P35462)", "< 5.00"]
]}

INPUT: Supply recorded pKi for Cn1c(=O)cnn(CCCCN2CCN(c3ncccc3-c3ccncc3)CC2)c1=O [Compound 11b] here.
OUTPUT: < 5.00
